# tgt: T1, carcinoembryonic antigen (CEA) (human, UniProt P06731 35-685)
# T1 sequence (looked up): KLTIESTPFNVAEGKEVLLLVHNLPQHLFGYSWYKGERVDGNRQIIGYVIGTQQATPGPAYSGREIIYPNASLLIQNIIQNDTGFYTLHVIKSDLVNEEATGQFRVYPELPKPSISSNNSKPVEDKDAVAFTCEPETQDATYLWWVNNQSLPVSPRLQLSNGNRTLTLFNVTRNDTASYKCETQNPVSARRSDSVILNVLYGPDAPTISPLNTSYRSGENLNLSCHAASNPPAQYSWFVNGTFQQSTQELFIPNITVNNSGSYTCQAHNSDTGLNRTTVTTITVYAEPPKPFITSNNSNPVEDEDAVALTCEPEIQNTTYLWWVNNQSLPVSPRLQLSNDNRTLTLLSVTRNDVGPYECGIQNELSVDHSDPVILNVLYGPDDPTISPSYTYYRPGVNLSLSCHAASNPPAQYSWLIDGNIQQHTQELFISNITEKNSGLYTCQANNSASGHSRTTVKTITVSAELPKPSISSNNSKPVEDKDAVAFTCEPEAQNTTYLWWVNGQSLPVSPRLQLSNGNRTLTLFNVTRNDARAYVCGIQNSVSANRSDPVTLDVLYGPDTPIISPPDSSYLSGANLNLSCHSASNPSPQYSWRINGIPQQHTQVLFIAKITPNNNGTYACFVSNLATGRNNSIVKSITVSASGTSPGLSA
# test-description: competition RIA against 125I-mCOL-1 on CEA; modified Scatchard
value-kind: Ka (M⁻¹)
Give just the numeric value; M⁻¹ need not be written.

What value of Ka has been recorded for this entry: HuCOL-1AbrCDR framework variant 4 (FRV4) (antibody, V domains shown, also called HuCOL-1FRV4) VH: EVQLVQSGAEVVKPGASVKVSCKASGFNIKDYYMHWVRQRPEQGLEWMGWIDPENGDTEYAQKFQGRATMTTDTSTSTVYMELSSLRSEDTAVYYCNTRGLSTMITTRWFFDVWGAGTLVTVSS VL: DIVLTQSPASLAVSLGERATINCKSSQSVSASGYSYMHWYQQKPGQPPKLLIYLASNLQSGVPARFSGSGSGTDFTLTISSVQAEDVATYYCQHSRELPTFGGGTKLEIK 2.51e+08
